Just for reference, PubChem BioAssay (NCI) is where these values come from.

System: HCT-116 colon
assay-name: NCI-60 one-dose screen, 48 h (100 = growth as untreated, 0 = no growth, -100 = all killed)
recorded-conditions: 10 µM unless noted
Compounds without any hit were thinned out: in the full panel of roughly 83,000, 20% have a hit.
Would you mind sorting the entries by growth according to these classes? lower: < -20%; middle: ≥ -20% and < 50%; upper: ≥ 50%

INPUT: Looking at "N#CCc1nnc(NC(=O)c2ccc(-n3c(=O)[nH]c4ccccc4c3=O)cc2)s1" , which class would you pick?
OUTPUT: upper

INPUT: Looking at "C[C@@H]1CN(c2ccc3ncc(C#Cc4cncc(C(=O)Nc5ccc(CN6CCN(C)CC6)c(C(F)(F)F)c5)c4)n3n2)C[C@@H](C)O1" , which class would you pick?
OUTPUT: lower

INPUT: Looking at "Cc1ccc(Cl)cc1NC(=O)N/C(N)=N/c1nc2ccccc2s1" , which class would you pick?
OUTPUT: lower

INPUT: Looking at CC(C)(C)C(=O)C1CC(C#N)=C2C=Cc3c(ccc4ccccc34)N21 (stereo not given) , which class would you pick?
OUTPUT: upper

INPUT: Looking at Cc1ccc(C2CC(c3ccc(NC(=O)Nc4ccccc4)cc3)=NN2c2ccc(S(N)(=O)=O)cc2)cc1 (stereo not given) , which class would you pick?
OUTPUT: lower

INPUT: Looking at "COc1ccc(NC2=C(I)C(=O)C(C)=C(C)C2=O)cc1" , which class would you pick?
OUTPUT: middle

INPUT: Looking at "Cn1cc(-c2cc(N)n3nc(-c4c[nH]c5ccc(Cl)cc45)cc3n2)c2cccnc21" , which class would you pick?
OUTPUT: lower

INPUT: Looking at OC1CCC(Cn2c(C(F)(F)F)cc3c(Cl)ncnc32)CC1 (stereo not given) , which class would you pick?
OUTPUT: middle

INPUT: Looking at "COc1ccc(-c2nc3ccc(-c4nnc(SCc5ccccc5)o4)cc3[nH]2)cc1OC" , which class would you pick?
OUTPUT: middle

INPUT: Looking at "COc1cccc(-c2ccc(/C=N/NC(=O)c3[nH]c4ccc(Br)cc4c3-c3ccccc3)s2)c1" , which class would you pick?
OUTPUT: lower

INPUT: Looking at "CN1CCN(c2ccc3c4c(cccc24)C(=O)N(c2cccc(-c4nn(-c5ccccc5)cc4-c4nc5ccccc5s4)c2)C3=O)CC1" , which class would you pick?
OUTPUT: upper

INPUT: Looking at "CC(C)C[C@H](NC(=O)[C@@H]1CCCCCCCCCCC(=O)N[C@@H](CC(=O)N2CCC[C@@H]2C2CCCC2)C(=O)N1)B(O)O" , which class would you pick?
OUTPUT: lower

INPUT: Looking at "O=C(NC(=S)N1CCN(c2ncnc3c2cnn3-c2ccccc2)CC1)c1ccc(F)cc1" , which class would you pick?
OUTPUT: upper

INPUT: Looking at "Cc1cccc(/C=C/c2ccc(NC(=S)NCCCCN(C)C)cc2)c1" , which class would you pick?
OUTPUT: lower

INPUT: Looking at "c1n[nH]cc1-c1nc2ccc3cn[nH]c3c2c2c1CCCC2" , which class would you pick?
OUTPUT: upper

INPUT: Looking at "Cc1nc2sccn2c1-c1nnc(SCc2ccccc2)o1" , which class would you pick?
OUTPUT: upper

INPUT: Looking at Oc1ccc(Cl)c(Nc2nc(SCCN3CCOCC3)nc3c2cnn3CC(Cl)c2ccc(Br)cc2)c1 (stereo not given) , which class would you pick?
OUTPUT: middle

INPUT: Looking at COc1ccc(CCC2NCCc3c(Br)c4c(c(OC)c32)OCO4)cc1 (stereo not given) , which class would you pick?
OUTPUT: middle

INPUT: Looking at "Cc1ccc(N=Nc2c(N)nn3c(-c4cc5cc(Br)ccc5oc4=O)ccnc23)cc1" , which class would you pick?
OUTPUT: middle
